Data provenance: the supplement of paper PMC6757056

B1: library; a variant is named by its letters at N, in order (parent)
chain: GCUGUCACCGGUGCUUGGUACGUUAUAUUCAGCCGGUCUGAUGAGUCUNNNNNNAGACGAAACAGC

variants of: B1; assay: normalized RNA/DNA level without ligand (relative to sTRSVctl = 100) (log10 (% of sTRSVctl)); HEK293T overexpressing SLC46A1; higher = less ribozyme self-cleavage, higher mRNA level; conditions: without (6R,S)-folinic acid; ligand present: no
Experimental readout: normalized RNA/DNA level without ligand (log10)
Give the figure only, with no unit attached.

For orientation, consider the following solved cases.
>  <Residue change>
UCACUA

>  <Endpoint value>
2

$$$$
>  <Residue change>
AAUCAG

>  <Endpoint value>
1.97

$$$$
>  <Residue change>
AAAACA

>  <Endpoint value>
1.99

$$$$
>  <Residue change>
CCCACU

>  <Endpoint value>
2.1

$$$$

Reported normalized RNA/DNA level without ligand (log10) for `GGAAUU` was 2.05

Reported normalized RNA/DNA level without ligand (log10) for `GCGUUG` was 2.01

Reported normalized RNA/DNA level without ligand (log10) for `CCUUGA` was 2.02

Reported normalized RNA/DNA level without ligand (log10) for `AAACGG` was 1.9
